compounds and their reported MIC
# Test system: Staphylococcus aureus
# Measurement protocol: Antibacterial activity against Staphylococcus aureus ATCC 25923 after 12 hrs by serial plate dilution method
# Format: functional
# Condition details: ATCC 25923, 12 h
Write it as a number; the unit µg/mL goes unstated.

May I ask what MIC has been recorded for `Cc1ccc(-c2csc(N/N=C/c3c(-c4ccc(Cl)cc4)nc4sc(C(F)(F)F)nn34)n2)cc1` ? 25

May I ask what MIC has been recorded for `Cc1ccc(-c2nc3sc(C)nn3c2/C=N/Nc2nc(-c3ccc(Cl)cc3)cs2)cc1` ? 50

May I ask what MIC has been recorded for `Cc1nn2c(/C=N/Nc3nc(-c4ccc(Cl)cc4)cs3)c(-c3ccc(Cl)cc3)nc2s1` ? 25

May I ask what MIC has been recorded for `Cc1ccc(-c2csc(N/N=C/c3c(-c4ccc(Cl)cc4)nc4sc(C)nn34)n2)cc1` ? 50

May I ask what MIC has been recorded for `COc1ccc(-c2csc(N/N=C/c3c(-c4ccc(C)cc4)nc4sc(C)nn34)n2)cc1` ? 50

May I ask what MIC has been recorded for `COc1ccc(-c2nc3sc(C)nn3c2/C=N/Nc2nc(-c3ccc(F)cc3)cs2)cc1` ? 50

May I ask what MIC has been recorded for `Cc1ccc(-c2csc(N/N=C/c3c(-c4ccc(C)cc4)nc4sc(C)nn34)n2)cc1` ? 50

May I ask what MIC has been recorded for `COc1ccc(-c2nc3sc(C)nn3c2/C=N/Nc2nc(-c3ccc(C)cc3)cs2)cc1` ? 50

May I ask what MIC has been recorded for `COc1ccc(-c2csc(N/N=C/c3c(-c4ccc(Cl)cc4)nc4sc(C(F)(F)F)nn34)n2)cc1` ? 25
